Reference source: PubChem BioAssay (NCI)

System: UO-31 renal
test summary: NCI-60 one-dose screen, 48 h
run conditions: 10 µM unless noted
Compounds without any hit were thinned out: in the full panel of roughly 83,000, 20% have a hit. Active and inactive are the calls of the source. How the source made its calls: active means growth percent below 10; inactive means the rest.
Outcome codes: active, inactive

# molecule, tgt, class
data = [
    ("NC(=Nc1ccc(N)cc1)C(N)=Nc1ccc(N)cc1", "UO-31 renal", "inactive"),
    ("O=C1Nc2ccccc2/C1=N/N=C/c1ccc(OC2OC(CO)C(O)C(O)C2O)cc1 (stereo unspecified)", "UO-31 renal", "inactive"),
    ("COc1ccc(-c2nc3sccn3c2/C=C/C(=O)c2c[nH]c3ccccc23)cc1", "UO-31 renal", "inactive"),
    ("CCN(CC)CCOC(=O)N1c2ccccc2Sc2ccccc21", "UO-31 renal", "inactive"),
    ("COc1cc2nc(Nc3ccc(F)cc3)nc(N)c2cc1OC", "UO-31 renal", "inactive"),
    ("C=C1C(=O)O[C@H]2[C@H]1CC/C(COC(=O)NCc1ccc(Cn3c(=O)sn(CCCCl)c3=O)cc1)=C\\CC[C@@]1(C)O[C@@H]21", "UO-31 renal", "inactive"),
    ("N#Cc1c(N)n2c(nc1=Nc1ccc(Cl)cc1)sc1cc(Cl)ccc12", "UO-31 renal", "inactive"),
    ("Cc1nc(Nc2ccccn2)sc1C(=O)/C=C/c1ccc(Br)cc1", "UO-31 renal", "inactive"),
    ("Cn1cc(-c2ccc3nc(-c4ccc(CC(=O)Nc5cc(C(C)(C)C)no5)cc4)cnc3c2)cn1", "UO-31 renal", "active"),
    ("CS(=O)(=O)c1ccc(N/N=C/c2c(-c3ccc(S(C)(=O)=O)cc3)[nH]c3ccc(F)cc23)cc1", "UO-31 renal", "inactive"),
    ("COc1ccc(/C(C)=C(\\c2ccc(Cl)cc2)c2ccc(OCCN(C)C)cc2)cc1F", "UO-31 renal", "inactive"),
    ("CC(=O)Nc1cccc(C2=CC(c3ccc(C)cc3)n3ncnc3N2)c1 (stereo unspecified)", "UO-31 renal", "inactive"),
    ("Cc1ccc(S(=O)(=O)NN/C(N)=N\\S(=O)(=O)c2cc(C)c(Cl)cc2SCc2ccccc2)cc1", "UO-31 renal", "inactive"),
    ("CCOC(=O)c1nnn(-c2ccccc2)c1C1=CN(C)CCC1", "UO-31 renal", "inactive"),
    ("NS(=O)(=O)Oc1ccc(NC(=O)C23CC4CC(CC(C4)C2)C3)cc1Cl", "UO-31 renal", "inactive"),
    ("CC[C@@H](C[C@H](CCO)c1ccccc1)c1cc2ccccc2o1", "UO-31 renal", "inactive"),
    ("C=C(Cl)COC(=O)C(C)(C)O", "UO-31 renal", "inactive"),
    ("O=C(O)C1C[C@](O)(c2ccc(F)cc2)[C@@H](c2ccc(F)cc2)O1 (stereo partly specified)", "UO-31 renal", "inactive"),
    ("CC(c1ccc(-n2cccn2)cc1)c1cnc(N2CCc3ccc(C(N)=O)cc3C2)s1 (stereo unspecified)", "UO-31 renal", "inactive"),
    ("Nc1c(C(=O)c2ccccc2)nnc2ncnn12", "UO-31 renal", "inactive"),
    ("NC(N)=N/N=C/c1ccc(Br)cc1", "UO-31 renal", "inactive"),
]
